# TARGET_SYSTEM: HEK cells stably transfected with tetracycline inducible hNR1 and hNR2A (Homo sapiens, UniProt Q05586+Q12879)
# Construct: expressed in transfected cells; host or cells: HEK cells, stably transfected, tetracycline/doxycycline inducible
# Sequence (Q12879 23-1464, other chains not shown): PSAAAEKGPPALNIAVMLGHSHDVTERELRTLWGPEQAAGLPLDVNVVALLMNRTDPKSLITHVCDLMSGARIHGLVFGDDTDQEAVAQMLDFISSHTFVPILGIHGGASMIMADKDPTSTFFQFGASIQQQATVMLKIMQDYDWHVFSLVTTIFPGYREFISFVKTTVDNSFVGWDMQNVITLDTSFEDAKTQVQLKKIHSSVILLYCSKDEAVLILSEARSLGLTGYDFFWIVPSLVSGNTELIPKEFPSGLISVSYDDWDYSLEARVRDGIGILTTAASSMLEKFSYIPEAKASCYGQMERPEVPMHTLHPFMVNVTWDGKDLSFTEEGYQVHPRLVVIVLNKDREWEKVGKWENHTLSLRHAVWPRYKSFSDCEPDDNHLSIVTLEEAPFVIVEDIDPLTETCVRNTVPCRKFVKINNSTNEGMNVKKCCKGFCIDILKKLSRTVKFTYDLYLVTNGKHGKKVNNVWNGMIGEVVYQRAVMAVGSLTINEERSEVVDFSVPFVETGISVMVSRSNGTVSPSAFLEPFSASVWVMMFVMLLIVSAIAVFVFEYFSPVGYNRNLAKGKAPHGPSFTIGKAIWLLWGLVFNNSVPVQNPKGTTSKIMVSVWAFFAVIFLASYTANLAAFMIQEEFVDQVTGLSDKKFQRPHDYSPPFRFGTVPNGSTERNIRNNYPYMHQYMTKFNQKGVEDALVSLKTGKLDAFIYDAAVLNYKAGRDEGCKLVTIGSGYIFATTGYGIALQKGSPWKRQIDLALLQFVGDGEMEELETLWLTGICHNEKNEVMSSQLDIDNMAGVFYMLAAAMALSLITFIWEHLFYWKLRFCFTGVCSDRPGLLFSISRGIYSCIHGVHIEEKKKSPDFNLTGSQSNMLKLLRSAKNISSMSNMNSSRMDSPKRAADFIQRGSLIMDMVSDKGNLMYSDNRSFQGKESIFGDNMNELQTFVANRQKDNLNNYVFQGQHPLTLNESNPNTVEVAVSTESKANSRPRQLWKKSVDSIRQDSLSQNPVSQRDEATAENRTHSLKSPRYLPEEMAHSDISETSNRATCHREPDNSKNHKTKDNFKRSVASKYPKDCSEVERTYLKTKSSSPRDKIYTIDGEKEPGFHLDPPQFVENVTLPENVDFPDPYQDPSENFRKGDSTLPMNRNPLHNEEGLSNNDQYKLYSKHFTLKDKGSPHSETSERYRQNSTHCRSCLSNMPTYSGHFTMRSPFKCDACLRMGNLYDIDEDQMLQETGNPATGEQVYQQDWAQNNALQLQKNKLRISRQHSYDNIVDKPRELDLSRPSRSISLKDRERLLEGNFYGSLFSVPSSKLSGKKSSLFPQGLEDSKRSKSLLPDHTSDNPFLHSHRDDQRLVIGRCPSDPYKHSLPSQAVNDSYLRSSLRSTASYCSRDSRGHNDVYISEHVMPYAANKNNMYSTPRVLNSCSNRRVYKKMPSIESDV
# PROCEDURE_SUMMARY: Assay 1: Cell-Based Assay, cytosolic calcium response to positive allosteric modulators (with 30 μM glycine and 300 nM L-glutamate, EC30)
# TEST_CONDITIONS: Table 2; responses scaled relative to 100 μM L-glutamate maximal response (100%) and 0 μM L-glutamate (0%)
RECORDED_METRIC: Max % (%)
Entry rule: numbers only, all in %.

Solved entries:
1) CCN(Cc1cc(=O)n2c(COC)c(C)sc2n1)c1ccc(F)cc1 ... 165
2) CNC(=O)c1c(C)sc2nc(Cc3ccc(F)cc3C3CC3)cc(=O)n12 ... 78
3) Cc1sc2nc(Cn3ncc4ccc(F)cc43)cc(=O)n2c1[C@@H]1C[C@H]1CO (relative stereo) ... 143
4) CCN(Cc1cc(=O)n2c(C(C)(C)C)csc2n1)c1ccc(F)cc1 ... 88.2
5) CCN(Cc1cc(=O)n2c(C(C)O)c(C)sc2n1)c1ccc(F)cc1 (stereo not drawn) ... 176
6) Cc1sc2nc(Cn3ccc(C(F)(F)F)n3)cc(=O)n2c1C(C)O (stereo not drawn) ... 94.8
7) CNC(=O)c1c(C)sc2nc(Cc3cccc(C(F)(F)F)c3F)cc(=O)n12 ... 129
8) Cc1sc2nc(Cn3nc(C4CC4)cc3C3CC3)cc(=O)n2c1[C@@H]1C[C@H]1CO (relative stereo) ... 137
9) Cc1sc2nc(COc3ccc(F)cc3)cc(=O)n2c1C(=O)NCCO ... 73
10) CCNC(=O)c1c(C)sc2nc(Cc3cc(C#N)ccc3CCF)cc(=O)n12 ... 131

Lookup: Answer with the recorded Max % for the compound listed here: CCNC(=O)c1c(C)sc2nc(Cc3cc(F)ccc3CC)cc(=O)n12
Found: 134

Lookup: Answer with the recorded Max % for the compound listed here: CCN(Cc1cc(=O)n2c(CCO)c(C)sc2n1)c1ccc(F)cc1
Found: 185

Lookup: Answer with the recorded Max % for the compound listed here: Cc1sc2nc(COc3ccc(C(F)(F)F)cc3)cc(=O)n2c1[C@@H]1C[C@H]1CO (relative stereo)
Found: 108

Lookup: Answer with the recorded Max % for the compound listed here: Cc1sc2nc(COc3ccc(F)cc3)c(F)c(=O)n2c1[C@@H]1C[C@H]1CO (relative stereo)
Found: 134

Lookup: Answer with the recorded Max % for the compound listed here: Cc1sc2nc(CN3c4ccc(F)cc4CC3C)cc(=O)n2c1-c1cncnc1 (stereo not drawn)
Found: 136

Lookup: Answer with the recorded Max % for the compound listed here: Cc1sc2nc(COc3ccc(F)cc3)cc(=O)n2c1C(=O)NC(C)CO (stereo not drawn)
Found: 45.5

Lookup: Answer with the recorded Max % for the compound listed here: CCc1c(C)sc2nc(CN(CC)c3ccc(F)cc3)cc(=O)n12
Found: 149

Lookup: Answer with the recorded Max % for the compound listed here: CCNC(=O)c1c(C)sc2nc(COc3ccc(F)cn3)cc(=O)n12
Found: 68

Lookup: Answer with the recorded Max % for the compound listed here: Cc1sc2nc(Cc3cc(C#N)ccc3C3CC3)cc(=O)n2c1[C@@H]1C[C@H]1CO (relative stereo)
Found: 146

Lookup: Answer with the recorded Max % for the compound listed here: Cc1sc2nc(Cc3cccc(C#N)c3)cc(=O)n2c1C1CC1CO (stereo not drawn)
Found: 137

Lookup: Answer with the recorded Max % for the compound listed here: CNC(=O)c1c(C)sc2nc(Cc3cccc(Cl)c3)cc(=O)n12
Found: 107

Lookup: Answer with the recorded Max % for the compound listed here: Cc1sc2nc(Cn3nc(C(F)(F)F)cc3CCO)cc(=O)n2c1[C@@H]1C[C@H]1CO (relative stereo)
Found: 158
